biological target: Mitogen-activated protein kinase kinase kinase 7 (Homo sapiens); test: Inhibition of TAK1 (unknown origin)
Sequence (O43318 whole entry): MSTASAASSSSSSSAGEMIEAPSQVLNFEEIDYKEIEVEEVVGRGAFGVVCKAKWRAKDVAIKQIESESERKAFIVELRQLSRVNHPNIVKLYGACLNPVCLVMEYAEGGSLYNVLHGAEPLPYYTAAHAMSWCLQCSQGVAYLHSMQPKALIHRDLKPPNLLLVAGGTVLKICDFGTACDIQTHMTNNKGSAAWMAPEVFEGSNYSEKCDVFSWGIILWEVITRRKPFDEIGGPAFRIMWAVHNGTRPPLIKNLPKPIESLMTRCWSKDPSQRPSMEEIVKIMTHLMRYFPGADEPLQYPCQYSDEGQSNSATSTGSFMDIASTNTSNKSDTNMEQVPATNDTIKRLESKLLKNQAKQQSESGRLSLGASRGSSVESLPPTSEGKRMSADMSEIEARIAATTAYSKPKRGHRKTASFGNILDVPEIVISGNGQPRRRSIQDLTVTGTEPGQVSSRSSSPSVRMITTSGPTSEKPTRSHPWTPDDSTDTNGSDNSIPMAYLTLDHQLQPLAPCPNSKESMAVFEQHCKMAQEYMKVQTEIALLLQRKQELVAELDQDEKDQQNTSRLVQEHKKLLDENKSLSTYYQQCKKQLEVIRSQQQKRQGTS
IC50 values, listed per item
assay-endpoint: IC50

INSERT INTO assay_data (smiles_entry, assay_endpoint, value_measured) VALUES
  ('COc1cc(O)c2c(c1)/C=C/C[C@H](O)[C@H](O)C(=O)CCC[C@H](C)OC2=O', 'IC50', '2.6 µM'),
  ('C/C=C/C=C\C(=O)[C@@H](O)[C@@H](O)C/C=C/c1cc(OC)cc(OC)c1C(=O)OC', 'IC50', '> 30 µM'),
  ('COc1cc(O)c2c(c1)/C=C/C[C@@H]1OC(CC(=O)[C@H]1O)C[C@H](C)OC2=O', 'IC50', '> 30 µM'),
  ('COc1cc(O)c2c(c1)[C@H]1O[C@@H]1C[C@H](O)[C@H](O)C(=O)CCC[C@H](C)OC2=O', 'IC50', '> 30 µM'),
  ('COc1cc(O)cc2c1C(=O)O[C@@H](C)CCCCC/C=C/C(=O)C2', 'IC50', '> 30 µM');
